Species on record: Oryctolagus cuniculus
experimental.details: Binding affinity to alpha-adrenergic receptor in rabbit jejunum
Format: tissue-based
pD2 values for the molecules below.
measured.attribute: pD2

- molecule: "Cc1cc(C(C)(C)C)c(O)c(C)c1CC1=NCCN1"
  measured.attribute: "pD2"
  reading: 9.8
- molecule: "c1ccc2c(CC3=NCCN3)cccc2c1"
  measured.attribute: "pD2"
  reading: 7.1
- molecule: "c1ccc2c(c1)CCCC2C1=NCCN1 (centres undefined) [TETRAHYDROZOLINE]"
  measured.attribute: "pD2"
  reading: 6.5
- molecule: "Cc1cc(C(C)(C)C)cc(C)c1CC1=NCCN1"
  measured.attribute: "pD2"
  reading: 7.1

Data origin: ChEMBL document CHEMBL3244159
